- System: U2OS
- protocol-summary: Multiplex assay against U2OS
- Assay type: toxicity, cell-based
- test-parameters: human, 48 h, 10 µM, compound concentration 10 uM, replicate 1
endpoint-name: Population Mitochondria Different-Phenotype (%)
Give the value, in units of %, as a plain number.

Some molecules with known Population Mitochondria Different-Phenotype (%) results, for comparison:
# molecule, numeric-readout
records = [
    ("Cc1cccc(CN2CCN(C(c3ccccc3)c3ccc(Cl)cc3)CC2)c1.Cl.Cl (stereo not drawn)", 42),
    ("Cc1c[nH]c2nccc(Oc3c(F)cc(Nc4cc(Cl)nc(N)n4)cc3F)c12", 46),
    ("CC(C)NC(=O)N1CC[C@H](NC2=Nc3cc(F)ccc3N(CC(F)F)c3ccc(Cl)cc32)C1", 44),
    ("CC(C)Oc1ccccc1C(=O)Nc1ccccc1C(=O)Nc1cccc(S(=O)(=O)C(F)(F)F)c1", 84),
    ("Cl.O=C(O)c1cc(-c2ccc(C3CCNCC3)cc2)c2ccc(-c3ccc(C(F)(F)F)cc3)cc2c1", 7),
]

Population Mitochondria Different-Phenotype (%) lookup needed for CNC(=O)Nc1ccc(-c2nc(N3CC4CCC(C3)O4)c3cnn(C4CCC5(CC4)OCCO5)c3n2)cc1 , thanks.
94

Request: O=C(c1cc2c(cc1F)OC(c1ccc(F)cc1)(c1ccc(Cl)cc1Cl)O2)N1CCOCC1 (stereo not drawn)
93

Request: CCc1nn(CCCN2CCN(c3cccc(Cl)c3)CC2)c(=O)n1CCOc1ccccc1.Cl [NEFAZODONE HYDROCHLORIDE]
97

Request: COc1cc2ncn(-c3cc(OCc4ccccc4C(F)(F)F)c(C(N)=O)s3)c2cc1OC [GW843682X]
93

Request: CC(C)(C)NC[C@H](O)COc1nsnc1N1CCOCC1
9

Data provenance: ChEMBL document CHEMBL4689842
